Record form. Attribute: JOE much more effective (number of patients who had used this Rx). Fill in for each entry.
test system: Herpes simplex (HSV1 facial herpes or HSV2 genital herpes); assay: Survey of Herpes simplex patients who treated themselves with jojoba oil esters; assay type: in vivo, human; details: jojoba oil esters compared with the previously used medication
Reply with just the number.

Problem: Record request: JOE much more effective (number of patients who had used this Rx) value, item NCCCC[C@H](N)C(=O)O
Solution: 4

Problem: Record request: JOE much more effective (number of patients who had used this Rx) value, item CC(=O)Oc1ccccc1C(=O)O
Solution: 1

Problem: Record request: JOE much more effective (number of patients who had used this Rx) value, item OO [Hydrogen peroxide]
Solution: 1

Problem: Record request: JOE much more effective (number of patients who had used this Rx) value, item Nc1nc2c(ncn2COCCO)c(=O)[nH]1
Solution: 14

----------
tested on: Herpes simplex (HSV1 facial herpes or HSV2 genital herpes); experiment: Survey of Herpes simplex patients who treated themselves with jojoba oil esters; format: in vivo, human; conditions: jojoba oil esters compared with the previously used medication
Record form. Attribute: JOE much more effective (number of patients who had used this Rx). Fill in for each entry.
Reply with just the number.

Problem: Record request: JOE much more effective (number of patients who had used this Rx) value, item CC(=O)OCC(CCn1cnc2cnc(N)nc21)COC(C)=O
Solution: 1

Problem: Record request: JOE much more effective (number of patients who had used this Rx) value, item CC[C@H]1OC(=O)[C@H](C)[C@@H](O[C@H]2C[C@@](C)(OC)[C@@H](O)[C@H](C)O2)[C@H](C)[C@@H](O[C@@H]2O[C@H](C)C[C@H](N(C)C)[C@H]2O)[C@](C)(O)C[C@@H](C)CN(C)[C@H](C)[C@@H](O)[C@]1(C)O
Solution: 1

Problem: Record request: JOE much more effective (number of patients who had used this Rx) value, item CC(C)[C@H](N)C(=O)OCCOCn1cnc2c(=O)[nH]c(N)nc21
Solution: 1
